molecular target: VEGFR2 (Homo sapiens); construct: purchased Carna 08-191; assay: Assay I: kinase inhibition (HTRF KinEASE-TK), VEGFR2; type: biochemical; conditions: Table 1; ATP working concentration 5 μM, substrate TK 1 μM
Sequence (P35968 20-1356): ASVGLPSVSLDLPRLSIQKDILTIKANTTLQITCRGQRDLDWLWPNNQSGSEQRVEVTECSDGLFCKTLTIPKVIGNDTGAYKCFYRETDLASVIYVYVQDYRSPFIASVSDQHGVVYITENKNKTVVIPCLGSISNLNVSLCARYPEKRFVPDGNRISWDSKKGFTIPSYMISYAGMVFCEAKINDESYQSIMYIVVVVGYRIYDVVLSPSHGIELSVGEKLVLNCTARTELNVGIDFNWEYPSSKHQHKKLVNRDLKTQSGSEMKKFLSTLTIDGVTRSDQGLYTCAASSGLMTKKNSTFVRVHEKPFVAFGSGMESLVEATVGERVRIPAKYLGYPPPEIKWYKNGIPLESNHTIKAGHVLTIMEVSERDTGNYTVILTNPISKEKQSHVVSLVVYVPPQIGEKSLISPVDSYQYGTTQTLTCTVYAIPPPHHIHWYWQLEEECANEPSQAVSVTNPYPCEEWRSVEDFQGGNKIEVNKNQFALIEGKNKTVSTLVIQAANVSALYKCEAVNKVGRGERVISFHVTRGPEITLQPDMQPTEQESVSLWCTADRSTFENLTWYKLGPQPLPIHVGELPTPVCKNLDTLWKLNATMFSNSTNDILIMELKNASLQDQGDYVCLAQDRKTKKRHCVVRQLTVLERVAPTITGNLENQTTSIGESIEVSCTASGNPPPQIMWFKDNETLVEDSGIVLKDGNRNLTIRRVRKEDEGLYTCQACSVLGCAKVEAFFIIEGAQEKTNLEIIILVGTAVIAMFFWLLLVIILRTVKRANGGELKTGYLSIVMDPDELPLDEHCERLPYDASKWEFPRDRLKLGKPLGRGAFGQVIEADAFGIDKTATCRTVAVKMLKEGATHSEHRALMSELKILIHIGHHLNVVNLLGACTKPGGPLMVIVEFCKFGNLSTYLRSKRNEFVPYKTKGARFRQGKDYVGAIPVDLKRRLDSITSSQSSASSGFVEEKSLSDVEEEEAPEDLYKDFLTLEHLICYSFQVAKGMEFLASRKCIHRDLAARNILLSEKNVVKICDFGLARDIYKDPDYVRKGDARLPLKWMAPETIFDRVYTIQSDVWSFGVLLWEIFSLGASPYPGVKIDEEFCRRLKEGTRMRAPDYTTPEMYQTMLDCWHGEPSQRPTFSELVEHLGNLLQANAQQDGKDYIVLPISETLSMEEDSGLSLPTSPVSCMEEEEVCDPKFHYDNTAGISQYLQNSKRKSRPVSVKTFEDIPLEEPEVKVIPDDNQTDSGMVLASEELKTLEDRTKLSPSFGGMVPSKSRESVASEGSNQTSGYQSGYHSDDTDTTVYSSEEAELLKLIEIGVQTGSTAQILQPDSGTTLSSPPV
OBSERVED_PROPERTY: IC50 (nM)

COMPOUND: C[C@@H](Oc1ccc2[nH]nc(C(=O)Nc3cnn(CCO)c3)c2c1)c1c(Cl)cncc1Cl [Compound 7]
IC50, nM: 97.6
--
COMPOUND: CC(Oc1ccc2[nH]nc(C(=O)Nc3cnn(CC4CCN(C)CC4)c3)c2c1)c1c(Cl)cncc1Cl (stereo not drawn) [Compound 22]
IC50, nM: 179
--
COMPOUND: CC(Oc1ccc2[nH]nc(C(=O)Nc3cnn(CCC4(O)CC4)c3)c2c1)c1c(Cl)cncc1Cl (stereo not drawn) [Compound 15]
IC50, nM: 66.2
--
COMPOUND: CC(Oc1ccc2[nH]nc(C(=O)Nc3cnn(CCC#N)c3)c2c1)c1c(Cl)cncc1Cl (stereo not drawn) [Compound 11]
IC50, nM: 230

I. CCn1cc(NC(=O)c2n[nH]c3ccc(OC(C)c4c(Cl)cncc4Cl)cc23)cn1 (stereo not drawn) [Compound 20]
II. CC(Oc1ccc2[nH]nc(C(=O)Nc3ccc(N4C[C@@H](C)N[C@@H](C)C4)cn3)c2c1)c1c(Cl)cncc1Cl (stereo partly drawn) [Compound 16]
III. CC(Oc1ccc2[nH]nc(C(=O)Nc3cnn(CCN4CCOCC4)c3)c2c1)c1c(Cl)cncc1Cl (stereo not drawn) [Compound 19]
IV. CC(Oc1ccc2[nH]nc(C(=O)Nc3cnn(C4CN(C)C4)c3)c2c1)c1c(Cl)cncc1Cl (stereo not drawn) [Compound 21]
V. CC(Oc1ccc2[nH]nc(C(=O)Nc3cnn(CCO)c3)c2c1)c1c(Cl)cncc1Cl (stereo not drawn) [Compound 2]
Give the ascending ranking of the items by reported IC50. I would appreciate it if you listed the labels in the requested order. IV, III, V, I, II

---

target: FGFR3 V555M (Homo sapiens, UniProt P22607, V555M); construct: purchased Signalchem F06-12GG; test: Assay III: inhibitory activity against FGFR mutants (method of Assay I, different operator); type: biochemical; settings: Table 3; same method as Assay I, different experimental operator
Sequence (P22607 23-806 V555M): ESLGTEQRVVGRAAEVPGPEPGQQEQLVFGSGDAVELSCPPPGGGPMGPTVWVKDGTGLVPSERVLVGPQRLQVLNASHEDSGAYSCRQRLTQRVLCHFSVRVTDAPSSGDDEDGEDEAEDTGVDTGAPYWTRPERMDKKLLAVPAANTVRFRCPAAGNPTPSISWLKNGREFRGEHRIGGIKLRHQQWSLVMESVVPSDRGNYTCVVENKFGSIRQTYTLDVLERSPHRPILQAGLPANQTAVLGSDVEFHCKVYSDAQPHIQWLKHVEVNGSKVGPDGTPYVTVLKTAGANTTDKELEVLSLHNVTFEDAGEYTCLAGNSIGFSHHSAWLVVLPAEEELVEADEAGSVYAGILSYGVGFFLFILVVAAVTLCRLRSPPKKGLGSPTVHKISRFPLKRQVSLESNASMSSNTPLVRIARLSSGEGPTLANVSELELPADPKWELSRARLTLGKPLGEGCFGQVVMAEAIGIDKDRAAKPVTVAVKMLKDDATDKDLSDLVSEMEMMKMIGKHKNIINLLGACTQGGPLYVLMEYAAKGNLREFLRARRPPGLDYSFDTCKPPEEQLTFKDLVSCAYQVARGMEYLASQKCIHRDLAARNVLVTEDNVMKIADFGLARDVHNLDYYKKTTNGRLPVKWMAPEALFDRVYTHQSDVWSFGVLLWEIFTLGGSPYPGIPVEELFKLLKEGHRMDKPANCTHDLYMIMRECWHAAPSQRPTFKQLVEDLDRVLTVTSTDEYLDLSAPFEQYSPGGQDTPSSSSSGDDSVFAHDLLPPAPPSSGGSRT
OBSERVED_PROPERTY: IC50 (nM)

MOLECULE: CC(Oc1ccc2[nH]nc(C(=O)Nc3cnn(CC(=O)N4CCCC4)c3)c2c1)c1c(Cl)cncc1Cl (stereo not drawn) [Compound 23]
MEASUREMENT_TARGET: FGFR3 V555M (Homo sapiens, UniProt P22607, V555M)
IC50 / nM: 0.92

MOLECULE: CC(Oc1ccc2[nH]nc(C(=O)Nc3ccc(CN4CCOCC4)cc3)c2c1)c1c(Cl)cncc1Cl (stereo not drawn) [Compound 30]
MEASUREMENT_TARGET: FGFR3 V555M (Homo sapiens, UniProt P22607, V555M)
IC50 / nM: 7.6

a. CC(Oc1ccc2[nH]nc(C(=O)Nc3cnn(C4CCC4)c3)c2c1)c1c(Cl)cncc1Cl (stereo not drawn) [Compound 27]
b. CC(Oc1ccc2[nH]nc(C(=O)Nc3cnn(CC(F)(F)F)c3)c2c1)c1c(Cl)cncc1Cl (stereo not drawn) [Compound 28]
c. CCN1CCC(Cn2cc(NC(=O)c3n[nH]c4ccc(O[C@H](C)c5c(Cl)cncc5Cl)cc34)cn2)CC1 [Compound 40]
d. C[C@@H](Oc1ccc2[nH]nc(C(=O)Nc3cnn(C4CC(O)C4)c3)c2c1)c1c(Cl)cncc1Cl (stereo partly drawn) [Compound 35]
Put these in order: smallest IC50 first, largest last. List labels; respect the requested ordering. c, d, b, a
